Species: Oryctolagus cuniculus
Assay: Inhibition of MAPKAPK1b from rabbit skeletal muscle at 1 uM
Type: tissue-based
Conditions: Muscle tissue, values are per cent of control
Provide the reported residual activity of each item.
Give bare numbers, in %.

# molecule, residual activity (%)
measured = [
    ("Cn1c2ccccc2c2c3c(c4c5ccccc5n(CCC#N)c4c21)CNC3=O", 5),
]

Parameters: items (list). Returns: residual activity for each item.
1. O=C1NC(=O)C(c2c[nH]c3ccccc23)=C1c1c[nH]c2ccccc12
2. Cn1cc(C2=C(c3c4n(c5ccccc35)CCC(CN)C4)C(=O)NC2=O)c2ccccc21 (stereo not drawn)

1: 54; 2: 5

====

Target: Protein kinase C alpha type (Homo sapiens, UniProt P17252)
Test: Inhibition of His-tagged human PKCalpha expressed in Escherichia coli at 1 uM
Settings: values are per cent of control
property.measured: residual activity (%)
One number for each entry, in %.

Parameters: items (list). Returns: residual activity for each item.
1. CO[C@H]1C[C@@H]2CC[C@@H](C)[C@@](O)(O2)C(=O)C(=O)N2CCCC[C@H]2C(=O)O[C@H]([C@H](C)C[C@@H]2CC[C@@H](O)[C@H](OC)C2)CC(=O)[C@H](C)/C=C(\C)[C@@H](O)[C@@H](OC)C(=O)[C@H](C)C[C@H](C)/C=C/C=C/C=C/1C
2. Cn1cc(C2=C(c3c4n(c5ccccc35)CCC(CN)C4)C(=O)NC2=O)c2ccccc21 (stereo not given)
3. CN(C)CCCn1cc(C2=C(c3c[nH]c4ccccc34)C(=O)NC2=O)c2ccccc21
4. Cn1c2ccccc2c2c3c(c4c5ccccc5n(CCC#N)c4c21)CNC3=O
5. O=C1NC(=O)C(c2c[nH]c3ccccc23)=C1c1c[nH]c2ccccc12

1. 99
2. 1
3. 4
4. 7
5. 57

====

Target: MAP kinase-activated protein kinase 2 (Homo sapiens, UniProt P49137)
Sequence (P49137 whole entry, looked up): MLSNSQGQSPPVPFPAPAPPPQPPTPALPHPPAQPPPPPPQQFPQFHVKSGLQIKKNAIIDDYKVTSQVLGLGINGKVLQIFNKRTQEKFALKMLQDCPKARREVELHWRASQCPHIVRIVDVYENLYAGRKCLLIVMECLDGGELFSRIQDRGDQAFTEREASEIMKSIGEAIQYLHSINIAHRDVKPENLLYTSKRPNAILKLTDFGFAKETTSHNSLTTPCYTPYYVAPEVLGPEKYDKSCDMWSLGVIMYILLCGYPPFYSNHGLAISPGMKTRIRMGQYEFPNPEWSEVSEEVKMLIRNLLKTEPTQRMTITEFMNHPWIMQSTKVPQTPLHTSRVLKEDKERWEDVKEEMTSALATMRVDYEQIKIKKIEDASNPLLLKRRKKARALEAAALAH
Test: Inhibition of His-tagged human MAPKAPK2 expressed in Escherichia coli at 1 uM; values are per cent of control
Provide the reported residual activity of each item.
Answers are plain numbers, in %.

Known residual activity results, listed for orientation:
# compound, assay.target, test.result
rows = [
    ("Cn1c2ccccc2c2c3c(c4c5ccccc5n(CCC#N)c4c21)CNC3=O", "MAP kinase-activated protein kinase 2 (Homo sapiens, UniProt P49137)", 80),
    ("COC[C@H]1OC(=O)c2coc3c2[C@@]1(C)C1=C(C3=O)[C@@H]2CCC(=O)[C@@]2(C)C[C@H]1OC(C)=O", "MAP kinase-activated protein kinase 2 (Homo sapiens, UniProt P49137)", 102),
]

Parameters: items (list). Returns: residual activity for each item.
1. CO[C@H]1C[C@@H]2CC[C@@H](C)[C@@](O)(O2)C(=O)C(=O)N2CCCC[C@H]2C(=O)O[C@H]([C@H](C)C[C@@H]2CC[C@@H](O)[C@H](OC)C2)CC(=O)[C@H](C)/C=C(\C)[C@@H](O)[C@@H](OC)C(=O)[C@H](C)C[C@H](C)/C=C/C=C/C=C/1C
2. Cn1cc(C2=C(c3cn(CCCSC(=N)N)c4ccccc34)C(=O)NC2=O)c2ccccc21 [BISINDOLYLMALEIMIDE IX]
3. CN(C)CCCn1cc(C2=C(c3c[nH]c4ccccc34)C(=O)NC2=O)c2ccccc21

1: 125; 2: 103; 3: 90
